Tested on: P. falciparum female gametocytes
Assay: P. falciparum female gametogenesis assay (Pf FGAA)
Settings: 1: YES; 0: NO; >10-fold selectivity over cytotox
Listed below: Is compound selective in assay? Pf FGAA active? values for each entry.

> print(dat)
                                    molecule                   subject.of.test  data.value
 1  CC(Cc1ccc(NC(=O)c2ccc(CNCCCCc3ccccc3)cc2)cc1)NCCc1cccc(Cl)c1.Cl (centres unmarked)  P. falciparum female gametocytes   0 (0: NO)
 2  CC(C)(C)c1ccc(CNC(=O)/C=C/c2ccc(CNC3CCNCC3)cc2)cc1  P. falciparum female gametocytes   0 (0: NO)
 3  Nc1ccc2[nH]cc(C3CCN(CCC4CCN(C(=O)/C=C/c5ccc(Cl)c(Cl)c5)CC4)CC3)c2n1  P. falciparum female gametocytes   0 (0: NO)
 4  Cc1ccc(Cn2nc(Cl)c(N3CCCNCC3)cc2=O)cc1NC(=O)Nc1ccc(-c2ccccc2)cc1.O=C(O)C(F)(F)F  P. falciparum female gametocytes   0 (0: NO)
 5  c1ccc(C23N=C(Nc4nc5ccccc5[nH]4)NC2(c2ccccc2)NC(Nc2nc4ccccc4[nH]2)=N3)cc1 (centres unmarked)  P. falciparum female gametocytes  1 (1: YES)
 6  CC1(CCN2CCC(c3c[nH]c4cnccc34)CC2)CCCc2c(Br)cccc2C1=O.Cl (centres unmarked)  P. falciparum female gametocytes   0 (0: NO)
 7  CCCCCCCN1CC[C@@H](CCCc2ccnc3ccc(OC)cc23)[C@@H](CNC)C1.O=C(O)C(=O)O  P. falciparum female gametocytes   0 (0: NO)
 8  COc1cccc(C23N=C(Nc4nc5ccccc5[nH]4)NC2(c2cccc(OC)c2)NC(Nc2nc4ccccc4[nH]2)=N3)c1 (centres unmarked)  P. falciparum female gametocytes  1 (1: YES)
 9  CC(Cc1ccc(NC(=O)c2ccc(CNCCc3ccccc3)cc2)cc1)NCCc1cccc(Cl)c1.Cl (centres unmarked)  P. falciparum female gametocytes   0 (0: NO)
10  CCN(CC)CCN(Cc1ccc(-c2ccc(C(F)(F)F)cc2)cc1)C(=O)Cn1cc(Cc2cnn(C)c2)c(=O)nc1/C=C/c1ccc(F)cc1.O=C(O)C(O)C(O)C(=O)O  P. falciparum female gametocytes  1 (1: YES)

API: value(readout=Is compound selective in assay? Pf FGAA active?, system=P. falciparum female gametocytes) for record O=C(/C=C/c1ccc(Cl)c(Cl)c1)N1CCC(CN2CCC(c3c[nH]c4ccncc34)CC2)CC1
0 (0: NO)

Can you handle O=C(CCC1CCCC1)N(Cc1ccc(-c2ccc(CNCCc3ccccc3)cc2)cc1)C1CCCNC1.O=C(O)C(F)(F)F (centres unmarked) next?
0 (0: NO)

Can you handle CN1CCC=C(C(=O)NCC(C)(C)c2nc(-c3ccc(Cl)c(O)c3)c(-c3ccncc3)[nH]2)C1.Cl next?
0 (0: NO)

Can you handle CCN(CC)CCN(Cc1ccc(-c2ccc(Cl)cc2)cc1)C(=O)Cn1cc(CN(C)C)c(=O)nc1SCc1ccc(F)cc1 next?
0 (0: NO)
